Data provenance is patent US20100137305A1.

A set of compounds tested on UniProtKB Q96GD4, with measured Ki:

These solved cases illustrate the format of a correct answer.
compound: CCC(=O)Nc1ccc(Sc2nc(Nc3cc(C)n[nH]3)cc(N3CC[C@@H](NC)C3)n2)cc1
Ki: 10 to 50 nM

compound: Cc1cc(Nc2cc(N3CCC(N4CCC(F)C4)CC3)nc(Sc3ccc(NC(=O)CC(F)(F)F)cc3)n2)[nH]n1 (centres unmarked)
Ki: ≤ 10 nM

compound: CCC(=O)Nc1ccc(Sc2nc(Nc3cc(C)[nH]n3)cc(N3CCC(=O)CC3)n2)cc1
Ki: 10 to 50 nM

compound: CCC(=O)Nc1ccc(Sc2nc(Nc3cc(C)n[nH]3)cc(N3CCC(C)(O)CC3)n2)cc1
Ki: 10 to 50 nM

compound: CCC(=O)Nc1ccc(Sc2nc(Nc3cc(C)n[nH]3)cc(N3CCC(F)C3)n2)cc1 (centres unmarked)
Ki: 10 to 50 nM

// sample `Cc1cc(Nc2cc(N3CCC4(CC3)CCN(C(C)C)C4)nc(Sc3ccc(NC(=O)C4CC4)cc3)n2)[nH]n1` , its Ki was 10 to 50 nM

// sample `Cc1cc(Nc2cc(N3CCC(N4CCOCC4)CC3)nc(Sc3ccc(NC(=O)C4(C(F)(F)F)CC4)cc3)n2)[nH]n1` , its Ki was ≤ 10 nM

// sample `CCC(=O)Nc1ccc(Sc2nc(Nc3cc(C)n[nH]3)cc(N3CC[C@H](NC)C3)n2)cc1` , its Ki was 10 to 50 nM

// sample Cc1cc(Nc2cc(N3CCC(F)C3)nc(Sc3ccc(NC(=O)CCC(F)(F)F)cc3)n2)[nH]n1 (centres unmarked) , its Ki was 10 to 50 nM

// sample `CCC(=O)Nc1ccc(Sc2nc(Nc3cc(C)n[nH]3)cc(N3CCC(OC(C)(C)C)CC3)n2)cc1` , its Ki was 10 to 50 nM

----------
A set of compounds tested on Aurora-2 (Aurora A) (Homo sapiens, UniProt O14965), with measured Ki:

These solved cases illustrate the format of a correct answer.
compound: Cc1cc(Nc2cc(N3CCC(N4CCCC4)CC3)nc(Sc3ccc(NC(=O)CC(F)(F)F)cc3)n2)[nH]n1
measured-on: Aurora-2 (Aurora A) (Homo sapiens, UniProt O14965)
Sequence (O14965 whole entry): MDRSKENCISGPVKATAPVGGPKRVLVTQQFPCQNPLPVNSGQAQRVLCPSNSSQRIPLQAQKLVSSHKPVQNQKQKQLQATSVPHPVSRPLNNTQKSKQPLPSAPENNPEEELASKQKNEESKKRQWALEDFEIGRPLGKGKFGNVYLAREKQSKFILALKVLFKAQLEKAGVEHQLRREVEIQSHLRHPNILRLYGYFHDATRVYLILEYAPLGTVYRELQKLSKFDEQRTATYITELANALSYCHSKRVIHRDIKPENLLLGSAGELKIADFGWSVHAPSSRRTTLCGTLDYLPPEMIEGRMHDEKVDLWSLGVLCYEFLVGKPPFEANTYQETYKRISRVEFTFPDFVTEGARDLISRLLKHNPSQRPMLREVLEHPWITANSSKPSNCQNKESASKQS
Ki: ≤ 10 nM
--
compound: CCC(=O)Nc1ccc(Sc2nc(Nc3cc(C)n[nH]3)cc(N3CCC(N(C)C(C)(C)C)CC3)n2)cc1
measured-on: Aurora-2 (Aurora A) (Homo sapiens, UniProt O14965)
Ki: ≤ 10 nM
--
compound: Cc1cc(Nc2cc(N3CCC(N4CCC(F)C4)CC3)nc(Sc3ccc(NC(=O)CC(F)(F)F)cc3)n2)[nH]n1 (stereo not shown)
measured-on: Aurora-2 (Aurora A) (Homo sapiens, UniProt O14965)
Ki: ≤ 10 nM
--
compound: Cc1cc(Nc2cc(N3CCC(N4CCN(C)CC4)CC3)nc(Sc3ccc(NC(=O)C4(C(F)(F)F)CC4)cc3)n2)[nH]n1
measured-on: Aurora-2 (Aurora A) (Homo sapiens, UniProt O14965)
Ki: ≤ 10 nM
--
compound: CCC(=O)Nc1ccc(Sc2nc(Nc3cc(C)n[nH]3)cc(N3CCC(N4[C@H](C)CC[C@H]4C)CC3)n2)cc1
measured-on: Aurora-2 (Aurora A) (Homo sapiens, UniProt O14965)
Ki: ≤ 10 nM

// sample `CCC(=O)Nc1ccc(Sc2nc(Nc3cc(C)[nH]n3)cc(N3CCC(=O)CC3)n2)cc1` , its Ki was ≤ 10 nM

// sample `CCC(=O)Nc1ccc(Sc2nc(Nc3cc(C)n[nH]3)cc(N3CCC(C(C)(C)C)CC3)n2)cc1` , its Ki was ≤ 10 nM

----------
Tested on: Colo205 cells
Assay: Analysis of Cell Proliferation, 3H thymidine incorporation
Assay type: cell-based
Details: Homo sapiens, COLO 205, 96 h, 96 hours, read-out: IC50 cell proliferation after 96 hours
quantity: IC50

These solved cases illustrate the format of a correct answer.
compound: CCC(=O)Nc1ccc(Sc2nc(Nc3cc(C)n[nH]3)cc(N3CCC(N4CCCC4)C3)n2)cc1 (stereo not drawn)
recorded-measurement: ≤ 50 nM
--
compound: CCC(=O)Nc1ccc(Sc2nc(Nc3cc(C)n[nH]3)cc(N3CC4CCCNC4C3)n2)cc1 (stereo not drawn)
recorded-measurement: 50 to 200 nM
--
compound: CCC(=O)Nc1ccc(Sc2nc(Nc3cc(C)[nH]n3)cc(N3CC[C@H](NC(C)C)C3)n2)cc1
recorded-measurement: 50 to 200 nM
--
compound: CCC(=O)Nc1ccc(Sc2nc(Nc3cc(C)n[nH]3)cc(N3CCC(C)(O)CC3)n2)cc1
recorded-measurement: 50 to 200 nM
--
compound: Cc1cnc(Nc2cc(N3CC[C@H](O)C3)nc(Sc3ccc(NC(=O)C4CC4)cc3)n2)s1
recorded-measurement: 50 to 200 nM

// sample `CCC(=O)Nc1ccc(Sc2nc(Nc3cc(C)n[nH]3)cc(N3CC[C@@H](NC)C3)n2)cc1` , its IC50 was 50 to 200 nM

// sample `CN1CCC2(CCN(c3cc(Nc4cc(C5CC5)n[nH]4)nc(Sc4ccc(NC(=O)C5CC5)cc4)n3)CC2)C1` , its IC50 was ≤ 50 nM

// sample `CO[C@H]1CCN(c2cc(Nc3ncc(C)s3)nc(Sc3ccc(NC(=O)C4CC4)cc3)n2)C1` , its IC50 was 50 to 200 nM

// sample `CCC(=O)Nc1ccc(Sc2nc(Nc3cc(C4CC4)n[nH]3)cc(N3CC[C@H](N4CCCC4)C3)n2)cc1` , its IC50 was ≤ 50 nM

// sample `CCC(=O)Nc1ccc(Sc2nc(Nc3cc(C)n[nH]3)cc(N3CC[C@H](N(C)CC)C3)n2)cc1` , its IC50 was ≤ 50 nM

// sample CCC(=O)Nc1ccc(Sc2nc(Nc3cc(C)n[nH]3)cc(N3CCC(F)C3)n2)cc1 (stereo not drawn) , its IC50 was 50 to 200 nM

----------
pKi: −log10 of the molar value.
A set of molecules tested on Aurora-1 (Aurora B) (Homo sapiens), with measured pKi:

These solved cases illustrate the format of a correct answer.
molecule: Cc1cc(Nc2cc(N3CCC(O)CC3)nc(Sc3ccc(NC(=O)CC(F)(F)F)cc3)n2)[nH]n1
pKi: ≥ 8.00
--
molecule: CCC(=O)Nc1ccc(Sc2nc(Nc3cc(C4CC4)n[nH]3)cc(N3CCC(F)C3)n2)cc1 (centres unmarked)
pKi: ≥ 8.00
--
molecule: Cc1cnc(Nc2cc(N3CCC(N4CCCC4)CC3)nc(Sc3ccc(NC(=O)C4CC4)cc3)n2)s1
pKi: 7.30 to 8.00
--
molecule: Cc1cc(Nc2cc(N3CC[C@H](N(C)C)C3)nc(Sc3ccc(NC(=O)c4ccccc4C(F)(F)F)cc3)n2)[nH]n1
pKi: ≥ 8.00
--
molecule: CCC(=O)Nc1ccc(Sc2nc(Nc3cc(C)n[nH]3)cc(N3CCC(N4CCCC4(C)C)CC3)n2)cc1
pKi: 7.30 to 8.00

The reported pKi value, Aurora-1 (Aurora B) (Homo sapiens), for `Cc1cc(Nc2cc(N3CCC4(CC3)OCCO4)nc(Sc3ccc(NC(=O)CC(F)(F)F)cc3)n2)[nH]n1` reads ≥ 8.00

The reported pKi value, Aurora-1 (Aurora B) (Homo sapiens), for `CCC(=O)Nc1ccc(Sc2nc(Nc3cc(C)n[nH]3)cc(N3CCC(N4CCOCC4)CC3)n2)cc1` reads 7.30 to 8.00

The reported pKi value, Aurora-1 (Aurora B) (Homo sapiens), for `Cc1cc(Nc2cc(N3CCC(N4CCN(C)CC4)CC3)nc(Sc3ccc(NC(=O)C4(C(F)(F)F)CC4)cc3)n2)[nH]n1` reads 7.30 to 8.00

----------
System: Colo205 cells
Assay: Analysis of Cell Proliferation, 3H thymidine incorporation
Format: cell-based
Details: Homo sapiens, COLO 205, 96 h, 96 hours, read-out: IC50 cell proliferation after 96 hours
Measured IC50, listed per entry for reference.

compound: CCC(=O)Nc1ccc(Sc2nc(Nc3cc(C)n[nH]3)cc(N3CCC(N(C)C(C)(C)C)CC3)n2)cc1 [Compound I-47]
measured-on: Colo205 cells
IC50: ≤ 50 nM

// sample Cc1cnc(Nc2cc(N3CCC(N4CCCC4)CC3)nc(Sc3ccc(NC(=O)C4CC4)cc3)n2)s1 [Compound I-38] , its IC50 was ≤ 50 nM

// sample Cc1cnc(Nc2cc(N3CC[C@@H](N(C)C)C3)nc(Sc3ccc(NC(=O)C4CC4)cc3)n2)s1 [Compound I-29] , its IC50 was 50 to 200 nM

// sample Cc1cc(Nc2cc(N3CCC(F)(F)C3)nc(Sc3ccc(NC(=O)CC(F)(F)F)cc3)n2)[nH]n1 [Compound I-27] , its IC50 was 50 to 200 nM

// sample CCC(=O)Nc1ccc(Sc2nc(Nc3cc(C)n[nH]3)cc(N3CCC(O)(C(C)(C)C)C3)n2)cc1 (stereo not shown) [Compound I-10] , its IC50 was 50 to 200 nM

// sample CCC(=O)Nc1ccc(Sc2nc(Nc3cc(C)n[nH]3)cc(N3CCC(N4CCCC4)CC3)n2)cc1 [Compound I-41] , its IC50 was ≤ 50 nM

// sample CCC(=O)Nc1ccc(Sc2nc(Nc3cc(C)n[nH]3)cc(N3CCC(O)(C(C)(C)C)CC3)n2)cc1 [Compound I-61] , its IC50 was ≤ 50 nM
